Hi there, I'd appreciate the recorded melting point for every entry that follows.
Where a name gives a salt, the structure may show the parent alone.

Query: Give its melting point value. Item: `COC(=O)N(CCCc1ccccc1)[C@H]1CC[C@H](c2ccc(O)cc2)CC1`
Result: 128 to 133 °C

Query: Can you check `Oc1ccc([C@H]2CC[C@@H](NCCCCc3ccccc3)CC2)cc1` next?
Result: 128 to 131 °C

Query: Can you check `O=C(CCc1ccccc1)N[C@H]1CC[C@H](c2ccc(O)cc2)CC1` next?
Result: 201 to 206 °C

Query: Can you check Oc1ccc([C@H]2CC[C@H](N(CCCc3ccccc3)Cc3ccccc3)CC2)cc1 (as salt: HCl) next?
Result: 259 to 264 °C

Query: Can you check Oc1ccc([C@H]2CC[C@H](NCc3ccccc3)CC2)cc1 [Example 4b, trans-4-(4-Benzylaminocyclohexyl)phenol] next?
Result: 168 to 172 °C
